assay: NCI Yeast Anticancer Drug Screen. Data for the sgs1 mgt1 strain (AID 161);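 further: 0% = growth of cultures given vehicle only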; details: S. cerevisiae sgs1 mgt1 strain, at 50.0 µM
Compounds without any hit were thinned out: in the full panel of roughly 79,000, 15% have a hit. Active and inactive are the calls of the source. No stated cut-off is given here; in the data, active means growth inhibition above about 70%; inactive means the rest.
Your reply should match one of these outcome classes. active, inactive

Cc1ccc(NC(=O)C(Br)C(Br)c2ccccc2)cc1Cl (centres undefined)    active
CC1(C)OC(=O)C(C)(C)OC1=O    inactive
CC1(CCN2CCCC2)NC(=O)NC1=O (centres undefined)    inactive
COc1ccc(NC(=O)c2cccc([N+](=O)[O-])c2)cc1    inactive
CC1(C)OC(C(CCl)OS(C)(=O)=O)C(C(CCl)OS(C)(=O)=O)O1 (centres undefined)    inactive

query: // param item: Cc1ncc([N+](=O)[O-])n1CCNC(=O)CCCCn1ccnc1[N+](=O)[O-] ; yields the recorded call
result: inactive

query: What was the test verdict on CC1CCOC(C)(Cc2ccccc2)O1 (centres undefined) ?
result: inactive

query: Give the logged outcome of this assay for the following compound: Clc1ccc(C(CI)c2ccccc2Cl)cc1 (centres undefined)
result: inactive

query: Hey, what did the test say about O=c1oc2ccc(Br)cc2cc1-n1nnc2ccccc21 ?
result: inactive

====

assay: NCI Yeast Anticancer Drug Screen. Data for the mlh1 rad18 strain (AID 175); conditions: S. cerevisiae mlh1 rad18 strain growth inhibition; at 50.0 µM; stronger effect = higher value
Compounds without any hit were thinned out: in the full panel of roughly 79,000, 15% have a hit. Where a SMILES comes first, the peptide text is derived from it. [ ]: non-standard residue; d: D form. pGlu = O=C1CC[CH](C(=O)O)N1
Assign class by growth inhibition: not lower than -20% means rule met; lower than -20% means rule not met.

Consider the worked cases shown below.
O=[N+]([O-])c1ccc(-c2cccc3ccccc23)c([N+](=O)[O-])c1    rule met
CN(C)c1ccc(/C=C2/CC(=O)N(c3ccccc3)C2=O)cc1    rule met
C=CCN(CC=C)C(=O)Nc1cccc2c(NC(=O)N(CC=C)CC=C)cccc12    rule not met
CC1=C(c2ccco2)C(c2ccco2)OC1=O (stereo not given)    rule met

query: Threshold query (growth inhibition >= -20%) on CC(NC(=O)C(Cc1cnc[nH]1)NC(=O)C1CCC(=O)N1)C(N)=O (stereo not drawn) ([pGlu]-His-Ala-NH2; configuration not given here)
result: rule not met

====

assay: NCI Yeast Anticancer Drug Screen. Data for the sgs1 mgt1 strain (AID 161);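 further: 0% = growth of cultures given vehicle only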; details: S. cerevisiae sgs1 mgt1 strain, at 50.0 µM, stronger effect = higher value
This is part of a sample that, as a whole, favours compounds with a hit. Of some 79,000 tested, about 15% had one in any assay.
endpointLabel: growth inhibition (%)
# unit: % | format: bare number

C#CCNC(=O)NC(CCCCNC(=O)OCc1ccccc1)C(=O)OCc1ccccc1 (stereo not given)    -10.8
NC(Cc1ccc(OC(c2ccccc2)c2ccccc2)cc1)C(=O)O (stereo not given)    0.75
O=C(CI)NCC(O)CNC(=O)CI    18
CCCCCCCCCCOC(=O)Nc1cccc(O)c1    95.4
O=C(Cn1c2c(c3ccccc31)CCCC2)N1CCCCC1    -31.2

The reported value for CC(C)CNC(=O)O in terms of growth inhibition is -7.5

# growth inhibition of Cc1ccc(C2=C(c3ccccc3)C(O)(c3ccccc3)C(c3ccccc3)=C2c2ccc(C)cc2)cc1 = -31.5

# growth inhibition (compound: Cc1c2ccccc2c(C)n2c1nc1cc3ccccc3cc12 ) is 11.8

# compound O=C1NC2OCC(O)C(O1)C2O (stereo not given) ; its growth inhibition = -13.3

Entry source: PubChem BioAssay (NCI)
